Test system Acetylcholinesterase (Electrophorus electricus, UniProt O42275), pIC50 listed for each of the compounds.
Please note pIC50 is a logarithmic value: minus log10 of concentration in mol/L. Answer with that number alone.

O=C(NN=C1CC(c2ccccc2)NC(c2ccccc2)C1)c1ccccc1 (stereo not drawn) ... 4.00
CCOC(=O)N1CCC(=NNC(=O)c2ccc(OC)cc2)CC1 ... 4.00

Here is another compound to look at.
Quick one: pIC50 of CCOC(=O)N1CCC(=NNC(=O)c2ccc(Cl)cc2)CC1 ? 4.09

---

- assay-system: Cholinesterase (Equus caballus)
- Sequence (P81908 whole entry): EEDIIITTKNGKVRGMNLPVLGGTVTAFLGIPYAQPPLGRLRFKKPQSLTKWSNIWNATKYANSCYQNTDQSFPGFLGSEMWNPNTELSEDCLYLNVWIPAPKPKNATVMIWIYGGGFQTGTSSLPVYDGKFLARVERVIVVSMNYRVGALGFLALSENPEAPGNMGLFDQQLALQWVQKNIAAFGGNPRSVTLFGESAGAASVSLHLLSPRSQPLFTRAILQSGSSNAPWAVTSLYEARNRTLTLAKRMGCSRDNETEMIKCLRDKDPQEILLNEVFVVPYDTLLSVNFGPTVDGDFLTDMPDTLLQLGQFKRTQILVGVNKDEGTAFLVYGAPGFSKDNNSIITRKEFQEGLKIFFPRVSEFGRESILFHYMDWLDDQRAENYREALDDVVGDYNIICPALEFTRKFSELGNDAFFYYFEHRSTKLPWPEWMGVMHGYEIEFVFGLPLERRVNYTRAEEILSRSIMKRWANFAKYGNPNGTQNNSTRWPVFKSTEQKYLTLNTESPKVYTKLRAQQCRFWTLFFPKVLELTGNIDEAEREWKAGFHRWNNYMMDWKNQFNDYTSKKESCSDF
- protocol-summary: Inhibition of horse serum butyrylcholinesterase by Ellman's method
IC50 less than 90 µM is Yes; IC50 greater than or equal to 90 µM is No.

Input O=C(NN=C1CC(c2ccccc2)NC(c2ccccc2)C1)c1ccc([N+](=O)[O-])cc1 (stereo unspecified) ; condition: IC50 strictly below 90 µM. Does it hold? Yes

Hello, is IC50 of the following molecule strictly smaller than 90 µM? COc1ccc(C(=O)NN=C2CC(c3ccccc3)NC(c3ccccc3)C2)cc1 (stereo unspecified) No

Decide: IC50 of CCOC(=O)N1CCC(=NNC(=O)c2ccc([N+](=O)[O-])cc2)CC1 strictly below 90 µM? No

Please state whether IC50 is below 90 µM for O=C(NN=C1CC(c2ccccc2)NC(c2ccccc2)C1)c1ccc(F)cc1C(F)(F)F (stereo unspecified) Yes

Please check: IC50 for CCOC(=O)N1CCC(=NNC(=O)c2ccc(F)cc2)CC1 , strictly under 90 µM or not? No

Bench note: check whether O=C(NN=C1CC(c2ccccc2)NC(c2ccccc2)C1)c1ccc(Cl)cc1 (stereo unspecified) shows IC50 below 90 µM Yes

Is it true that IC50 reported for O=C(NN=C1CC(c2ccccc2)NC(c2ccccc2)C1)c1ccc(C(F)(F)F)cc1 (stereo unspecified) is less than 90 µM? No

# check: IC50 < 90 µM for CCOC(=O)N1CCC(=NNC(=O)c2ccc(C)cc2)CC1 Yes

Problem: For the molecule CCOC(=O)N1CCC(=NNC(=O)c2ccc(F)cc2C(F)(F)F)CC1 , is IC50 under 90 µM? No

Report whether reported IC50 is lower than 90 µM (strictly) for O=C(NN=C1CC(c2ccccc2)NC(c2ccccc2)C1)c1ccc(C(F)(F)F)cc1F (stereo unspecified) No
